// provenance: paper PMC9883013

- targetOrSystem: SERT-PG^601,602AA (Homo sapiens, UniProt P31645, G602A/P601A)
- Construct: expressed in transfected cells; host or cells: HEK293 (ATCC CRL-1573), transient PEI transfection
- assaySummary: Immunoblotting of glycosylation state (mature vs core-glycosylated band) of the SERT mutant
- Format: cell-based

- molecule: "O=CNC(Cc1ccc2c(c1)OCO2)Cc1ccc2c(c1)OCO2 [ECSI#6]"
  EC50 (nM): 440

###

- targetOrSystem: SERT (Homo sapiens, UniProt P31645)
- Construct: expressed in transfected cells
- Sequence (P31645 whole entry): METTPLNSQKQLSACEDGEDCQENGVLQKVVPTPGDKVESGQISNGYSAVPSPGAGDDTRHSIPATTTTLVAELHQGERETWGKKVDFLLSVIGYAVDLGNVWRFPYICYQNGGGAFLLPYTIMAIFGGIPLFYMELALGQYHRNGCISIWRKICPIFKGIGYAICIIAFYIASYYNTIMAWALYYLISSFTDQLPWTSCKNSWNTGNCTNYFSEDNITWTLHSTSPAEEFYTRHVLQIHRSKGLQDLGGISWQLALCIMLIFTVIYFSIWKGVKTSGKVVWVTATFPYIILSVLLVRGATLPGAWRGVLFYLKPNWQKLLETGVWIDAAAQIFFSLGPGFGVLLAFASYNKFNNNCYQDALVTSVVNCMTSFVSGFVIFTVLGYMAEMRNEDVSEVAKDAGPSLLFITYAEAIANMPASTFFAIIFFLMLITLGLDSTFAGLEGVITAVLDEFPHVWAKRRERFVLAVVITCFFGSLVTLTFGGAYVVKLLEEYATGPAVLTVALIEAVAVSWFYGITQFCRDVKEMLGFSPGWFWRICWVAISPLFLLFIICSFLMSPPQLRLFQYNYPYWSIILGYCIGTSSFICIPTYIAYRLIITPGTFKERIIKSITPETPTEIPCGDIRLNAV
- assaySummary: Inhibition of [3H]citalopram binding to membranes from HEK293 cells expressing GFP-SERT
- conditions: buffer with 120 mM Na+ (Na+/K+ comparison); read-out: IC50(120 Na+), inhibition of [3H]citalopram binding
measurementLabel: IC50 (µM)

- smilesRepresentation: "O=CNC(Cc1ccc2c(c1)OCO2)Cc1ccc2c(c1)OCO2"
  val: 46.2
